system: T1, human chemokine (C-C motif) receptor 8 (CCR8) protein (human, UniProt P51685 1-355)
T1 construct: whole, on cells; also called human CCR8
test_method_notes: cell binding, CCR8-expressing U2OS cells, curve fit

binder: 137-H3L2 (LM-108) (antibody, V domains shown, Humanized 137D1H10; Detected with anti-human IgG) VH: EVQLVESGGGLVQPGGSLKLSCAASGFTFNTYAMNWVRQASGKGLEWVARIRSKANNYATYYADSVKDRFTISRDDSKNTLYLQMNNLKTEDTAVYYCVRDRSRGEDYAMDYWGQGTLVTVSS VL: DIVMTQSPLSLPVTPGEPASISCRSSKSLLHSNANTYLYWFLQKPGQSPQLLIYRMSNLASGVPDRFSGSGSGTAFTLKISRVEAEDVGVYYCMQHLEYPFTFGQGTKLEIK
Top: 32300
